For each entry below, report its log10(Ki) value.
biological target: human A2a receptor (Homo sapiens, UniProt P29274); construct: purchased Perkin-Elmer RBHA2AM400UA; host or cells: HEK293 cells, used as a membrane preparation; assay: A2a receptor competition binding assay (Scintillation Proximity); details: membranes from HEK293 cells expressing human A2a receptor; 0.5 nM tritiated ligand; Cheng-Prusoff; read-out: A2a Ki
Sequence (P29274 whole entry): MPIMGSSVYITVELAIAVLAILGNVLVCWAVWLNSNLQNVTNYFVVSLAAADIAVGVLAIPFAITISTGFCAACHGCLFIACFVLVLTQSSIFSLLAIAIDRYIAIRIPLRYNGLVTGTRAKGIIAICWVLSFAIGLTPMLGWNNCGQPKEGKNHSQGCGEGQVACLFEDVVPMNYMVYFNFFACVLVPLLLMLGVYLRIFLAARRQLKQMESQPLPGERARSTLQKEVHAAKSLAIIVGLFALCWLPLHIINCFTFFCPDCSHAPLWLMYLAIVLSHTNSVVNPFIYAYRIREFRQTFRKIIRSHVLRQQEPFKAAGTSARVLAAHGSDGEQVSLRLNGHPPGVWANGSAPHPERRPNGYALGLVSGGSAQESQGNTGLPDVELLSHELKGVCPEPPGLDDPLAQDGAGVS
Each number you see is log10 of Ki, and the unit inside the log is nM.

Field request: log10(Ki) | item: CC(c1ccc(-c2cccc(Cc3cn4c(N)nc5c(F)cccc5c4n3)c2)cc1)N1CCOCC1 (centres unmarked) [Ex-75] 0.78

What do we get for CCCN1CCC2(CCCN(C(=O)c3cn4c(N)nc5c(F)cccc5c4n3)C2)C1 (centres unmarked) [Ex-276] ? 2.11

And then Nc1nc2c(F)cccc2c2nc(C(=O)N3CCN4CCCC[C@@H]4C3)cn12 [Ex-284] , what is it? 1.52

Moving on to COc1cccc2c1nc(N)n1cc(C(=O)N3CCCC4(CCCO4)C3)nc21 (centres unmarked) [Ex-205] 1.11

Here is the next compound: COc1c(F)ccc2c1nc(N)n1cc(Cc3ccccc3)nc21 [Ex-11] 0.30

----------
I'd appreciate it if you could supply Ki values for the items below.
target: human A2a receptor (Homo sapiens); construct: purchased Perkin-Elmer RBHA2AM400UA; host or cells: HEK293 cells, used as a membrane preparation; test: A2a receptor competition binding assay (Scintillation Proximity); settings: membranes from HEK293 cells expressing human A2a receptor; 0.5 nM tritiated ligand; Cheng-Prusoff; read-out: A2a Ki
Form entry: value (nM) — number only.

Give its Ki value. Item: CCN(CC)C(=O)C1CCCN(C(=O)c2cn3c(N)nc4c(OC)cccc4c3n2)C1 (stereo not shown) [Ex-194] 21

What would you report for COc1cccc2c1nc(N)n1cc(C(=O)N3CCCC(OC)(OC)C3)nc21 [Ex-232] ? 18

Please do the same for Cc1cccc(C(=O)N2CCC(Cc3cn4c(N)nc5c(F)cccc5c4n3)CC2)n1 [Ex-324] as well. 44

Now consider Nc1nc2c(F)cccc2c2nc(Cc3cc(F)ccc3-c3cncnc3)cn12 [Ex-81] and answer again. 14

What would you report for Cc1cccc(CNC(=O)c2cn3c(N)nc4c(F)cccc4c3n2)n1 [Ex-295] ? 6.2

Consider next the compound Nc1nc2c(F)cccc2c2nc(C(=O)NCc3cccc(Br)n3)cn12 [Ex-294] in the same way. 5.3

Also COc1cccc2c1nc(N)n1cc(C(=O)N3CCCC(C(F)(F)F)C3)nc21 (stereo not shown) [Ex-173] , if possible. 31

----------
target: human A2a receptor (Homo sapiens, UniProt P29274); construct: purchased Perkin-Elmer RBHA2AM400UA; host or cells: HEK293 cells, used as a membrane preparation; test: A2a receptor competition binding assay (Scintillation Proximity); settings: membranes from HEK293 cells expressing human A2a receptor; 0.5 nM tritiated ligand; Cheng-Prusoff; read-out: A2a Ki
The threshold is 10 nM. Values of Ki beneath it are tagged Yes; values meeting or exceeding it are tagged No.

Ki strictly < 10 nM for this molecule? CCn1cc(-c2cccc3c2nc(N)n2cc(CN(C)Cc4cccc(Cl)c4)nc32)cn1 No

Subsequent entry: Nc1nc2c(F)cccc2c2nc(CN3CCOc4cccnc43)cn12 Yes

How about this molecule: COc1cccc2c1nc(N)n1cc(C(=O)N3CCC(F)(F)CC3)nc21 No

Next entry: Nc1nc2c(F)cccc2c2nc(Cc3ccc(C(=O)NCCN4CCOCC4)cc3)cn12 No

Also need Nc1nc2cccc(F)c2c2nc(Cc3ccccc3)cn12 , thanks. Yes

For COc1ccc2nc(N)n3cc(Cc4ccccc4)nc3c2c1 then? No

Moving on to the next molecule: COc1cccc2c1nc(N)n1cc(C(=O)N3CCCC4(CC4)C3)nc21 [Ex-174] Yes

// repeat for COc1cccc2c1nc(N)n1cc(Cc3ccc(F)cc3)nc21 and report Yes

Here is the next molecule: COc1cccc2c1nc(N)n1cc(C(=O)N3CCO[C@H](C)C3)nc21 No

Lookup Nc1nc2ccccc2c2nc(Cc3ccccc3)cn12 [Ex-02, 2-benzylimidazo[1,2-c]quinazolin-5-amine] Yes

Also check COc1cccc2c1nc(N)n1cc(C(=O)N3CCC4(CC3)OCCC4(C)C)nc21 Yes

Another: CC(=O)Nc1ccc2c(c1)CCN(C(=O)c1cn3c(N)nc4c(F)cccc4c3n1)C2 No

Queued: Nc1nc2c(F)cccc2c2nc(CC3CCN(c4ccc(F)cn4)CC3)cn12 [Ex-319, 2,2,2-trifluoroacetate] No

Same lookup for Nc1nc2c(F)cccc2c2nc(C(=O)N3CCc4cc(NC(=O)c5ccccn5)ccc4C3)cn12 , please. No

Note, next up: COc1cccc2c1nc(N)n1cc(C(=O)N3CCCC(CO)C3)nc21 (centres unmarked) No

Consider next the molecule Nc1nc2c(F)cccc2c2nc(C(=O)N3CCc4cc(-c5ccc(F)c(F)c5)ccc4C3)cn12 in the same way. No

Query Nc1nc2c(-c3cnoc3)cccc2c2nc(Cc3ccccc3)cn12 next No

Also CC(=O)N1CCc2cc(Cc3cn4c(N)nc5c(F)cccc5c4n3)ccc2C1 , if possible. Yes

Record: Nc1nc2c(F)cccc2c2nc(C(=O)NCc3cccc(CN4CCOCC4)c3)cn12 Yes

# iterate: CC(C)(C)OC(=O)N1CCC2(CCN(C(=O)c3cn4c(N)nc5c(F)cccc5c4n3)C2)C1 (centres unmarked) No

And then COc1cccc2c1nc(N)n1cc(CN3CCN4CCCC[C@@H]4C3)nc21 , what is it? No

And the next one, Nc1nc2c(F)cccc2c2nc(C(=O)N3CCc4cc(-c5cncnc5)ccc4C3)cn12 ? No

// same read-out, input: COc1cccc2c1nc(N)n1cc(C(=O)N3CCCC4(CCC4)C3)nc21 Yes

Please answer likewise for Nc1nc2c(F)cccc2c2nc(Cn3cc(-c4cccnc4)nn3)cn12 No

Also, Nc1nc2c(F)cccc2c2nc(CC3CCN(C(=O)c4ccc(F)cn4)CC3)cn12 please. No

What would you report for Nc1nc2c(F)cccc2c2nc(C(=O)N3CCC4(CCNC4)CC3)cn12 ? No

Now the molecule Cc1ccc(CN2CCC(Cc3cn4c(N)nc5c(F)cccc5c4n3)CC2)cc1 No

Repeat for the following molecule: CN(Cc1cccc2cccnc12)C(=O)c1cn2c(N)nc3c(F)cccc3c2n1 No
